B1: library; numbered along this chain (parent)
chain: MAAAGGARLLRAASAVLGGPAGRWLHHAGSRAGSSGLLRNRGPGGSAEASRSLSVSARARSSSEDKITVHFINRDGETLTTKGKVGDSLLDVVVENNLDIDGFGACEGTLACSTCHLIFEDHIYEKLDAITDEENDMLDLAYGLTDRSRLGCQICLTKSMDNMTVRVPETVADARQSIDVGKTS

# Variants of: B1
# Assay Method Text: scaled log2 fold change in cell abundance, elesclomol vs control (0 = silent mean, 1 = nonsense mean) (scaled log2 ratio); higher = higher viability under elesclomol (loss of FDX1 cuproptosis function);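 also: variant abundance is its share of total variant reads in each endpoint sample, from next-generation sequencing of the integrated ORF PCR-amplified out of genomic DNA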
# Condition Description: with HEK293T FDX1 KO; elesclomol 40 nM; glucose 10 mM; 11 days
// values below are reported scaled log2 fold change

Consider the reported scaled log2 fold change for these variants:
q: # lookup: scaled log2 fold change of A4W
a: -0.542

q: Check R39D too.
a: 1.07

Proceeding to the next variant to report its scaled log2 fold change.
q: Quick check: scaled log2 fold change of A57S ?
a: 0.0851
